test-system: HIV reverse transcriptase (RT) (Human immunodeficiency virus type 1 group M subtype B)
protocol: Pre-steady-state determination of KD and kpol
Format: biochemical, HIV-1
test-conditions: Kd (equilibrium dissociation constant), 6 mM Mg2+, curve fit ± standard error
outcome-measure: pKd
Answer as the number alone; pKd is minus log10 of concentration in mol/L.

Bench note: what pKd did Cc1cn([C@H]2C[C@H](O)[C@@H](CO[P@](=O)(O)O[P@@](=O)(O)OP(=O)(O)O)O2)c(=O)[nH]c1=O [dTTP, Deoxythymidine triphosphate] show?
5.38

* * *

test-system: HIV reverse transcriptase (RT) (Human immunodeficiency virus type 1 group M subtype B, UniProt P04585)
protocol: Pre-steady-state observed incorporation rate constant
Assay type: biochemical, HIV-1
test-conditions: 5 μM nucleotide, 0.5 mM Mg2+
outcome-measure: relative rate vs dTTP same [Mg2+]
Please state the value as a number alone, without comment.

Answered cases to consult:
compound: CC[C@]1(COP(=O)(O)OP(=O)(O)OP(=O)(O)O)O[C@@H](n2cc(C)c(=O)[nH]c2=O)C[C@@H]1O [4′-C-ethyl dTTP]
outcome-measure: relative rate vs dTTP same [Mg2+]
reported-result: 0.15
//
compound: Cc1cn([C@H]2C[C@H](N)[C@@H](COP(=O)(O)OP(=O)(O)OP(=O)(O)O)O2)c(=O)[nH]c1=O [3′-amino dTTP]
outcome-measure: relative rate vs dTTP same [Mg2+]
reported-result: 0.094
//
compound: Cc1cn([C@H]2C[C@H](O)[C@@H](CO[P@](=O)(O)O[P@@](=O)(O)OP(=O)(O)O)O2)c(=O)[nH]c1=O [dTTP, Deoxythymidine triphosphate]
outcome-measure: relative rate vs dTTP same [Mg2+]
reported-result: 1
//
compound: Cc1cn([C@H]2C[C@H](O)[C@@](C)(COP(=O)(O)OP(=O)(O)OP(=O)(O)O)O2)c(=O)[nH]c1=O [4′-C-methyl dTTP]
outcome-measure: relative rate vs dTTP same [Mg2+]
reported-result: 0.52
//
compound: Cc1cn([C@H]2CC[C@@H](COP(=O)(O)OP(=O)(O)OP(=O)(O)O)O2)c(=O)[nH]c1=O [ddTTP, dideoxy TTP]
outcome-measure: relative rate vs dTTP same [Mg2+]
reported-result: 0.16

Which relative rate vs dTTP same [Mg2+] is listed for Cc1cn([C@H]2C=C[C@@H](COP(=O)(O)OP(=O)(O)OP(=O)(O)O)O2)c(=O)[nH]c1=O [d4TTP] ?
0.21

Look at this compound and give its reported relative rate vs dTTP same [Mg2+]. Cc1cn([C@H]2C[C@H](F)[C@@H](COP(=O)(O)OP(=O)(O)OP(=O)(O)O)O2)c(=O)[nH]c1=O [3′-fluoro dTTP]
0.063

Which measured relative rate vs dTTP same [Mg2+] value corresponds to Cc1cn([C@@H]2C[C@H](COP(=O)(O)OP(=O)(O)OP(=O)(O)O)[C@@H](O)C2)c(=O)[nH]c1=O [D-carba dTTP] ?
0.13

Fill in: relative rate vs dTTP same [Mg2+] of Cc1cn([C@H]2C[C@H](N=[N+]=[N-])[C@@H](CO[P@](=O)(O)O[P@](=O)(O)OP(=O)(O)O)O2)c(=O)[nH]c1=O [AZTTP] is ___
0.23
